Test: Mouse hepatocyte stability
Type: in vitro ADME
Settings: male, CD-1, mouse, cryopreserved hepatocytes
measured quantity: CLint scaled at 2 h, 1 µM (L/h/kg)

P: CC(=O)Nc1cccc(Nc2cc(NC3CC3)n3ncc(C#N)c3n2)c1 [Compound 3]
Q: N#Cc1cnn2c(NC3CC3)cc(Nc3cccc(-n4cnnc4)c3)nc12 [Compound 14]
Q. Please tell me which of the two, P or Q , has the higher reported CLint scaled at 2 h, 1 µM value. I would appreciate it if you answered with the label of your choice.
A. P
(P: 31.2 L/h/kg, Q: 9.6 L/h/kg)
